src = patent US9856263B2

- System under test: Human D1 Receptor (Homo sapiens (Human), UniProt P21728)
- Sequence (P21728 whole entry): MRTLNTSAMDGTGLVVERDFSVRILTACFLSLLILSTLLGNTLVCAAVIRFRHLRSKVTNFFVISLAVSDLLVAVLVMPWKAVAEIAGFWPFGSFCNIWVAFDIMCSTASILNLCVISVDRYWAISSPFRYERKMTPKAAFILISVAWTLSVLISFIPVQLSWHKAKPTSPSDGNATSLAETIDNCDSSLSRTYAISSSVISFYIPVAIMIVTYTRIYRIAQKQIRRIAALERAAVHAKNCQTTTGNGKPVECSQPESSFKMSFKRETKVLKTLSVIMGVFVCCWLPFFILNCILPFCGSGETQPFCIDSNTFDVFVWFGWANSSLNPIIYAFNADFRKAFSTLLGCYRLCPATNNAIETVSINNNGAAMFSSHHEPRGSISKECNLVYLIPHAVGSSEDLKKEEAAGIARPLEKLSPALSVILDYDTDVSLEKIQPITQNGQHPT
- Method: Human D1 receptor binding assay ([3H]-SCH23390 competition binding)
- Reported conditions: read-out: Human D1 Receptor Binding, Ki (nM); Geometric mean of 2-4 determinations (unless otherwise indicated); over-expressing LTK human cell lines; 0.5 nM [3H]-SCH23390; 30 min at 37° C.; footnote a = single determination, b = geometric mean of ≧5 determinations
Below is a list of entries, each paired with its recorded Ki value.
Give just the number in nM; leave the unit off.

These recorded examples may help you get a feel for the data.
Request body: readout Ki, system Human D1 Receptor (Homo sapiens (Human), UniProt P21728), query Cc1cnnc(C)c1-c1ccc(Oc2ncnn3cccc23)cc1F . Return the value. 105

Item: Cc1ncnc(C)c1-c1ccc(Oc2ncnn3cccc23)c(F)c1C Test system: Human D1 Receptor (Homo sapiens (Human), UniProt P21728) Read-out: Ki Value: ? 116

Form: Entry = Cc1ncnc(C)c1-c1ccc(Oc2nccn3nccc23)cc1F | System = Human D1 Receptor (Homo sapiens (Human), UniProt P21728) | Ki = ____ 183

Please tell me: Ki of Cc1cc(Oc2nccn3cccc23)c(F)cc1-c1c(C)ncnc1C , system Human D1 Receptor (Homo sapiens (Human), UniProt P21728)? 31.5

Under Human D1 Receptor (Homo sapiens (Human), UniProt P21728): Ki value of COc1cc(Oc2ncnn3cccc23)ccc1-c1c(C)ncnc1C ? 672

Further cases:
Param readout= Ki; system= Human D1 Receptor (Homo sapiens (Human), UniProt P21728); entry= COc1cc(Oc2nccn3cccc23)ccc1-c1c(C)cnnc1C ; returns value. 28.1

Given the entry Cc1ncnc(C)c1-c1ccc(Oc2nccn3cccc23)cc1 , what Ki was observed with Human D1 Receptor (Homo sapiens (Human), UniProt P21728)? 102

Which measured Ki belongs to Cc1cc(Oc2ncnn3cccc23)ccc1-c1c(C)nc2ncccn12 , tested on Human D1 Receptor (Homo sapiens (Human), UniProt P21728)? 1150

Which Ki is reported with Human D1 Receptor (Homo sapiens (Human), UniProt P21728) for this entry: Cc1c(-c2ccc(Oc3nccn4cccc34)cc2)n(C)c(=O)[nH]c1=O ? 7.3
